The values you see were collected from patent US20250082635A1.

Quick list: AUC(0-inf) per entry.
Test Details: clinical
Cond: both, human, in vivo, 10 mg, AUC∞ (mean (SD)), Cohort 3 moderate hepatic impairment; 10 mg dose normalized to 20 mg; total in plasma
I'd appreciate it if you wrote the number followed by its unit.

{"Compound": "Cc1nc(N2CC3CN(C(=O)c4c(F)cccc4-n4nccn4)CC3C2)nc(C)c1O (centres unmarked) [M16]", "Measured Parameter": "AUC(0-inf)", "Measured Value": "683 ng·h/mL"}

// next item, AUC(0-inf) requested
# return recorded AUC(0-inf) for input Cc1cc(CO)nc(N2CC3CN(C(=O)c4c(F)cccc4-n4nccn4)CC3C2)n1 (centres unmarked) [M12] 2580 ng·h/mL

---

Test Details: clinical
Cond: both, human, plasma, 10 mg, % fu, fraction unbound (mean (SD)), Cohort 3 moderate hepatic impairment; Day 1, 2 h
Measured Parameter: fraction unbound at 2 h
// return just the number, without any unit appended

{"Molecule": "Cc1cc(CO)nc(N2CC3CN(C(=O)c4c(F)cccc4-n4nccn4)CC3C2)n1 (centres unmarked) [M12]", "Measured Parameter": "fraction unbound at 2 h", "Measured Value": 0.114}

// next item, fraction unbound at 2 h requested
# return recorded fraction unbound at 2 h for input Cc1nc(N2CC3CN(C(=O)c4c(F)cccc4-n4nccn4)CC3C2)nc(C)c1O (centres unmarked) [M16] 0.0901

---

Test Details: clinical
Cond: both, human, in vivo, 20 mg, Cmax, geometric mean, Cohort 2 (Test) mild hepatic impairment; unbound
Measured Parameter: Cmax (ng/mL)
// units = ng/mL; emit number, no label

{"Compound": "Cc1nc(N2CC3CN(C(=O)c4c(F)cccc4-n4nccn4)CC3C2)nc(C)c1O (centres unmarked) [M16]", "Measurement Units": "ng/mL", "Cmax": 2.32}

// next item, Cmax requested
# return recorded Cmax for input Cc1cc(CO)nc(N2CC3CN(C(=O)c4c(F)cccc4-n4nccn4)CC3C2)n1 (centres unmarked) [M12] 21

---

Test Details: clinical
Cond: both, human, in vivo, 20 mg, AUC∞, geometric mean, Cohort 2 (Test) mild hepatic impairment; unbound
Measured Parameter: AUC(0-inf) (ng·h/mL)
// units = ng·h/mL; emit number, no label

# return recorded AUC(0-inf) for input Cc1nc(N2CC3CN(C(=O)c4c(F)cccc4-n4nccn4)CC3C2)nc(C)c1O (centres unmarked) 37.4

# return recorded AUC(0-inf) for input Cc1cc(CO)nc(N2CC3CN(C(=O)c4c(F)cccc4-n4nccn4)CC3C2)n1 (centres unmarked) 236

---

Quick list: Cmax per entry.
Test Details: clinical
Cond: both, human, in vivo, 20 mg, Cmax, geometric mean, Cohort 2 (Test) mild hepatic impairment; total
// units = ng/mL; emit number, no label

{"Compound": "Cc1nc(N2CC3CN(C(=O)c4c(F)cccc4-n4nccn4)CC3C2)nc(C)c1O (centres unmarked)", "Measurement Units": "ng/mL", "Measured Value": 50}

// next item, Cmax requested
# return recorded Cmax for input Cc1cc(CO)nc(N2CC3CN(C(=O)c4c(F)cccc4-n4nccn4)CC3C2)n1 (centres unmarked) 355

---

Quick list: AUC(0-inf) per entry.
Test Details: clinical
Cond: both, human, in vivo, 20 mg, AUC∞, geometric mean, Cohort 2 (Test) mild hepatic impairment; total
I'd appreciate it if you wrote the number followed by its unit.

{"Molecule": "Cc1nc(N2CC3CN(C(=O)c4c(F)cccc4-n4nccn4)CC3C2)nc(C)c1O (centres unmarked)", "AUC(0-inf)": "0.807 µg·h/mL"}

// next item, AUC(0-inf) requested
# return recorded AUC(0-inf) for input Cc1cc(CO)nc(N2CC3CN(C(=O)c4c(F)cccc4-n4nccn4)CC3C2)n1 (centres unmarked) 3.98 µg·h/mL

---

Test Details: clinical
Cond: both, human, in vivo, 10 mg, […], Cohort 3 moderate hepatic impairment; 10 mg dose normalized to 20 mg; total in plasma
Measured Parameter: Cmax (ng/mL)
// units = ng/mL; emit number, no label

{"Compound": "Cc1nc(N2CC3CN(C(=O)c4c(F)cccc4-n4nccn4)CC3C2)nc(C)c1O (centres unmarked) [M16]", "Cmax (ng/mL)": 43}

# return recorded Cmax for input Cc1cc(CO)nc(N2CC3CN(C(=O)c4c(F)cccc4-n4nccn4)CC3C2)n1 (centres unmarked) [M12] 261

---

Test Details: clinical
Cond: both, human, in vivo, po, 10 mg
Measured Parameter: Cmax (ng/mL)
// units = ng/mL; emit number, no label

{"Compound": "Cc1nc(N2CC3CN(C(=O)c4c(F)cccc4-n4nccn4)CC3C2)nc(C)c1O (centres unmarked) [M16]", "Measurement Units": "ng/mL", "Cmax": 21.5}

// next item, Cmax requested
# return recorded Cmax for input Cc1cc(CO)nc(N2CC3CN(C(=O)c4c(F)cccc4-n4nccn4)CC3C2)n1 (centres unmarked) [M12] 131

---

Test Details: clinical
Cond: both, human, in vivo, po, 20 mg
Measured Parameter: Tmax
I'd appreciate it if you wrote the number followed by its unit.

# return recorded Tmax for input Cc1nc(N2CC3CN(C(=O)c4c(F)cccc4-n4nccn4)CC3C2)nc(C)c1O (stereo not shown) [M16] 2 h

---

Test Details: clinical
Cond: both, human, in vivo, po, 10 mg
Measured Parameter: AUC(0-inf) (ng·h/mL)
// units = ng·h/mL; emit number, no label

# return recorded AUC(0-inf) for input Cc1nc(N2CC3CN(C(=O)c4c(F)cccc4-n4nccn4)CC3C2)nc(C)c1O (stereo not shown) 342

---

Quick list: AUC(0-t) per entry.
Test Details: clinical
Cond: both, human, in vivo, 20 mg, AUClast, geometric mean, Cohort 2 (Test) mild hepatic impairment; total
// units = µg·h/mL; emit number, no label

{"Compound": "Cc1nc(N2CC3CN(C(=O)c4c(F)cccc4-n4nccn4)CC3C2)nc(C)c1O (centres unmarked)", "Measured Parameter": "AUC(0-t)", "Measured Value": 0.783}

// next item, AUC(0-t) requested
# return recorded AUC(0-t) for input Cc1cc(CO)nc(N2CC3CN(C(=O)c4c(F)cccc4-n4nccn4)CC3C2)n1 (centres unmarked) 3.95

---

Test Details: clinical
Cond: both, human, in vivo, 10 mg, AUClast, geometric mean, Cohort 3 (Test) moderate hepatic impairment; 10 mg dose normalized to 20 mg; unbound
Measured Parameter: AUC(0-t) (µg·h/mL)
// units = µg·h/mL; emit number, no label

# return recorded AUC(0-t) for input Cc1cc(CO)nc(N2CC3CN(C(=O)c4c(F)cccc4-n4nccn4)CC3C2)n1 (centres unmarked) 0.258

# return recorded AUC(0-t) for input Cc1nc(N2CC3CN(C(=O)c4c(F)cccc4-n4nccn4)CC3C2)nc(C)c1O (centres unmarked) 0.053

---

Quick list: Cmax per entry.
Test Details: clinical
Cond: both, human, in vivo, 10 mg, Cmax, geometric mean, Cohort 3 (Test) moderate hepatic impairment; 10 mg dose normalized to 20 mg; total
// units = ng/mL; emit number, no label

{"Compound": "Cc1cc(CO)nc(N2CC3CN(C(=O)c4c(F)cccc4-n4nccn4)CC3C2)n1 (centres unmarked)", "Cmax, ng/mL": 253}

// next item, Cmax requested
# return recorded Cmax for input Cc1nc(N2CC3CN(C(=O)c4c(F)cccc4-n4nccn4)CC3C2)nc(C)c1O (centres unmarked) 41.8

---

Quick list: AUC(0-inf) per entry.
Test Details: clinical
Cond: both, human, in vivo, 10 mg, AUC∞, geometric mean, Cohort 3 (Test) moderate hepatic impairment; 10 mg dose normalized to 20 mg; total
// units = ng·h/mL; emit number, no label

{"Compound": "Cc1nc(N2CC3CN(C(=O)c4c(F)cccc4-n4nccn4)CC3C2)nc(C)c1O (centres unmarked)", "AUC(0-inf) (ng·h/mL)": 674}

// next item, AUC(0-inf) requested
# return recorded AUC(0-inf) for input Cc1cc(CO)nc(N2CC3CN(C(=O)c4c(F)cccc4-n4nccn4)CC3C2)n1 (centres unmarked) 2400

---

Test Details: clinical
Cond: both, human, in vivo, 20 mg, AUC∞, geometric mean, Cohort 1 (Reference) normal hepatic function; total
Quick list: AUC(0-inf) per entry.
// units = ng·h/mL; emit number, no label

{"Compound": "Cc1nc(N2CC3CN(C(=O)c4c(F)cccc4-n4nccn4)CC3C2)nc(C)c1O (centres unmarked) [M16]", "Measured Value": 812}

// next item, AUC(0-inf) requested
# return recorded AUC(0-inf) for input Cc1cc(CO)nc(N2CC3CN(C(=O)c4c(F)cccc4-n4nccn4)CC3C2)n1 (centres unmarked) [M12] 2320

---

Test Details: clinical
Cond: both, human, in vivo, 10 mg, […], Cohort 3 moderate hepatic impairment; 10 mg dose normalized to 20 mg; total in plasma
Measured Parameter: AUC(0-t)
I'd appreciate it if you wrote the number followed by its unit.

{"Compound": "Cc1nc(N2CC3CN(C(=O)c4c(F)cccc4-n4nccn4)CC3C2)nc(C)c1O (centres unmarked)", "AUC(0-t)": "631 ng·h/mL"}

// next item, AUC(0-t) requested
# return recorded AUC(0-t) for input Cc1cc(CO)nc(N2CC3CN(C(=O)c4c(F)cccc4-n4nccn4)CC3C2)n1 (centres unmarked) 2550 ng·h/mL
